B1: TPR t1 (parent)
chain: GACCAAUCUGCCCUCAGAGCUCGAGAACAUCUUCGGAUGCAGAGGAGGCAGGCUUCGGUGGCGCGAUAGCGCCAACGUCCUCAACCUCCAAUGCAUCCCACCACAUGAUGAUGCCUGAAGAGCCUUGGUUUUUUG

# Variants of: B1
# procedure details: polymerase ribozyme fitness, log enrichment relative to wild type (log ratio); higher = more active; in vitro selection for triplet polymerase activity
Entry flag: 1 if polymerase ribozyme fitness (log ratio) reaches -2; 0 if it does not.

mutant id: C11A U116A
class name: 0

mutant id: G51A C82A
class name: 0

mutant id: A50C C72U G77U C99A U116A G120C C123U
class name: 0

Decide: is the reported value of polymerase ribozyme fitness (log ratio) for G61A U92A C123A equal to or greater than -2?
0

Is it the case that U7G G69U G122A has polymerase ribozyme fitness (log ratio) reaching or exceeding -2?
1

Could you verify whether the entry A43G U112C G122U shows polymerase ribozyme fitness (log ratio) of no less than -2?
1

Could you tell me if the measured polymerase ribozyme fitness (log ratio) of C53G C80G C115A reaches -2 or more?
0

Can G52A C72U C85G be said to have polymerase ribozyme fitness (log ratio) at or above -2?
0
